PROTOCOL DESCRIPTION: VP16 transactivation reporter inhibitors, counter-screen for LRH-1 inverse agonist project, cell-based, luminescence, high throughput (AID 651615)
STUDY CONDITIONS: Gal4-VP16 luciferase reporter cells, at 3.6 µM
The source made the active and inactive calls. Rule as the data show it: active = inhibition above about 33%; inactive = the rest.
Outcome codes: yes for active, no for inactive

>>> cat("COC1=CC(=O)c2c(ccc3ncnc(N)c23)C1=O")
"yes"
>>> cat("Cc1nnc(SCC(=O)Nc2ccc(Br)cc2)n(N)c1=O")
"no"
>>> cat("Cc1cc(N2CCN(c3nc4ccccc4s3)CC2)n2ncnc2n1")
"yes"
>>> cat("Cc1cccc(NC(=O)CSc2nnc([C@@H]3CCCN3C(=O)OC(C)(C)C)o2)c1C")
"no"

###

EXPERIMENTAL SYSTEM: Nuclear receptor coactivator 3 (Homo sapiens)
PROTOCOL DESCRIPTION: SRC3 coactivator transcriptional activity inhibitors, confirmation, cell-based, luminescence, quadruplicate (AID 588792);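 also: 0% = DMSO treated cells and 100% = gossypol at 36 µM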
STUDY CONDITIONS: HEK293 GAL4-SRC3 luciferase reporter, at 3.6 µM, stronger effect = higher value
Quick list: inhibition per entry.
PROPERTY MEASURED: inhibition (%)

>>> experimental_result("O=C(OCc1ccccc1)c1ccc(NCc2cc(O)ccc2O)cc1")
70.6
>>> experimental_result("Cc1cc(C(=O)CSc2nc3ccccc3[nH]2)c(C)n1CC1CCCO1 (stereo unspecified)")
5.02
>>> experimental_result("CC1CCCCC1NC(=O)Cn1cnc2ccccc2c1=O (stereo unspecified)")
10.5
>>> experimental_result("COC(=O)Cc1[nH]n(-c2nc3ccccc3s2)c(=O)c1C(C)=Nc1ccc(OC)cc1")
85.2
>>> experimental_result("COc1ccc(C(=O)C2CCCN(Cc3cccn3-c3ccc(Cl)cn3)C2)c(OC)c1 (stereo unspecified)")
17.1
>>> experimental_result("O=C(/C=C/c1ccccc1)CC(O)(c1ccccc1)C(F)(F)C(F)F (stereo unspecified)")
11
>>> experimental_result("NS(=O)(=O)c1ccc(Sc2nc3ccccc3s2)c([N+](=O)[O-])c1")
53.3
>>> experimental_result("CC(C)N(CC(=O)Nc1ccc(Cl)cc1C(F)(F)F)C(=O)CCl")
44
>>> experimental_result("Cc1ccc(C(=O)CSc2cnc3ccccc3n2)cc1C")
-16.1
>>> experimental_result("Cc1ccc(C)c(N2CCN(C(=O)CCCCCn3c(=S)[nH]c4ccc(N5CCOCC5)cc4c3=O)CC2)c1")
60.6
>>> experimental_result("CC[n+]1c(C=C2C=C(C)OC(C)=C2)sc2ccccc21")
42.2
>>> experimental_result("CCCC(=O)N1CCN(c2ccc(NC(=O)c3cc4ccccc4o3)cc2Cl)CC1")
-3.22
>>> experimental_result("NNC(=O)c1cnn(Cc2ccccc2)c1N")
-5.29
>>> experimental_result("Nc1cc2ccncc2c2ccccc12")
72
>>> experimental_result("Cc1c2ccncc2cc2c1[nH]c1ccccc12")
48.7
>>> experimental_result("C=C1C(=O)c2sccc2C(c2ccc(OC)c(OC)c2)C1COC(C)=O (stereo unspecified)")
67.7

###

Quick list: inhibition per entry.
Tested on: transactivating tegument protein VP16 (Human herpesvirus 1)
PROTOCOL DESCRIPTION: VP16 transactivation reporter inhibitors, counter-screen for SRC2 inhibitor project, cell-based, luminescence, single concentration (AID 652007)
STUDY CONDITIONS: cell-based VP16 transactivation luciferase reporter, at 8.9 µM, stronger effect = higher value
PROPERTY MEASURED: inhibition (%)

>>> experimental_result("COc1ccc(C(=O)C(CN2CCOCC2)c2ccccc2)cc1F (configuration not stated)")
-1.66
>>> experimental_result("COc1ccc(NC(=O)C2(C)Cc3c(-c4cccc(C(F)(F)F)c4)ccnc3O2)cn1 (configuration not stated)")
-0.87
>>> experimental_result("COc1ccc(-c2nnc(SCC(=O)Oc3ccc(C)cc3)o2)cc1")
-10
>>> experimental_result("Cc1ccc(-n2c(C)c([N+](=O)[O-])c3ccc(O)c(CN(C)C)c32)cc1")
2.96
>>> experimental_result("CCN1CCN(Cc2ccc(NC(=O)c3cccc(-c4ccc5nc(NC(=O)C6CC6)sc5n4)c3)cc2C(F)(F)F)CC1")
24.5
>>> experimental_result("Cc1cc(C(=O)CSc2nc3ccccc3[nH]2)c(C)n1CC1CCCO1 (configuration not stated)")
31.5
>>> experimental_result("Cc1nc(SCCC(=O)O)c2cc(-c3ccccc3)sc2n1")
48.6
>>> experimental_result("Cc1ccc(C(C)C)c(OCc2ccc(C(=O)N/N=C/c3cccc(O)c3O)cc2)c1")
34.8
>>> experimental_result("CCN1/C(=C/c2sc(-c3ccccc3C)c[n+]2C)Sc2ccccc21")
44.1
>>> experimental_result("COc1ccc(NC(=O)CSc2nnnn2C2CCCCC2)c(OC)c1")
1.44
>>> experimental_result("Cc1ccc(-n2nc3ccc(N)cc3n2)c(C)c1")
-39.4
>>> experimental_result("Cn1nc(-c2ccccn2)nc2c(=O)n(C)c(=O)nc1-2")
13.4
>>> experimental_result("O=S(=O)(c1ccc(NC(=S)NCc2ccco2)cc1)N1CCCCC1")
-14.6
>>> experimental_result("COc1cccc(/C=N/NC(=O)c2cc3c(OC)ccc(OC)c3[nH]2)c1O")
-23.7
>>> experimental_result("CC(=O)c1c(C)[nH]c(C(=O)COc2cc(C)ccc2C(C)C)c1C")
17.3
>>> experimental_result("CC1CCCCC12NC(=O)N(CC(=O)Nc1ccc(OC(F)F)cc1)C2=O (configuration not stated)")
-18.4
>>> experimental_result("COCc1ccc(C(=O)N2CCC(CCC(=O)Nc3cccc(C)c3)CC2)s1")
27.4
>>> experimental_result("Brc1ccc2ncnc(NCc3cccnc3)c2c1")
-3.67
>>> experimental_result("CCn1cc(S(=O)(=O)Nc2ccc3c(c2)OCCO3)cn1")
-3.8
>>> experimental_result("Cc1cccc(C)c1NC(=O)CN1CCN(C/C=C/c2ccccc2)CC1")
-15.1
>>> experimental_result("CCOc1ccccc1N1CCN(C(=O)c2cc(-c3cc(OC)ccc3OC)nc3ccccc23)CC1")
-6.34
>>> experimental_result("O=C(c1ccccc1)C(CN1CCCCC1)c1ccccc1 (configuration not stated)")
29.1

###

Test system: transactivating tegument protein VP16 (Human herpesvirus 1), Gal4-VP16 luciferase reporter
PROTOCOL DESCRIPTION: VP16 transactivation inhibitors, counter-screen for SRC3 inhibitor project, cell-based, luminescence, high throughput (AID 588794)
STUDY CONDITIONS: mammalian cells, VP16-driven luciferase reporter luminescence; at 3.6 µM
The source made the active and inactive calls. Rule as the data show it: active = inhibition above about 30%; inactive = the rest.
Outcome codes: label 1 for active, label 0 for inactive

>>> cat("OCCN1CCN(c2ncnc3ccc(Br)cc23)CC1")
"label 1"
>>> cat("CC(=O)c1c(C)n(-c2ccccc2)c2ccc(O)cc12")
"label 1"
>>> cat("Cc1ccc(C(=O)O/N=C(\\N)c2ccccc2)c(Cl)c1")
"label 0"
>>> cat("CC(C)(C)Nc1nc(-c2ccccn2)nc2ccccc12")
"label 1"
>>> cat("CCSCCc1nnc(NC(=O)Nc2cccc(C(F)(F)F)c2)s1")
"label 1"
>>> cat("Nc1ccc2c(c1)OC1(CCCC1)O2")
"label 0"
>>> cat("CCCc1nc2c(=O)n(C)c(=O)nc-2n(C)n1")
"label 1"
>>> cat("COCCn1c(C)cc(C2=NNC(=Nc3ccccc3F)SC2)c1C")
"label 1"
>>> cat("O=NN(CC(=O)NNc1ccccc1)CC(=O)NNc1ccccc1")
"label 1"
>>> cat("CCOc1ccc(/C=N/OCC(=O)NCc2ccc3c(c2)OCO3)cc1OC")
"label 0"
>>> cat("Cc1cc(C)c2c(N)c3ccccc3nc2n1")
"label 1"
>>> cat("COc1ccc(-n2cc(-c3ccccc3)[n+]3c2CCCCC3)cc1")
"label 0"
>>> cat("Cc1noc(C)c1COC(=O)c1cccc(S(=O)(=O)N2CCCCCC2)c1")
"label 0"
>>> cat("O=C(Nc1ccc([N+](=O)[O-])cc1)Nc1nc(-c2ccc(Cl)s2)cs1")
"label 1"

###

EXPERIMENTAL SYSTEM: Steroidogenic factor 1 (Homo sapiens) (UniProt Q13285)
Sequence (Q13285 whole entry, looked up): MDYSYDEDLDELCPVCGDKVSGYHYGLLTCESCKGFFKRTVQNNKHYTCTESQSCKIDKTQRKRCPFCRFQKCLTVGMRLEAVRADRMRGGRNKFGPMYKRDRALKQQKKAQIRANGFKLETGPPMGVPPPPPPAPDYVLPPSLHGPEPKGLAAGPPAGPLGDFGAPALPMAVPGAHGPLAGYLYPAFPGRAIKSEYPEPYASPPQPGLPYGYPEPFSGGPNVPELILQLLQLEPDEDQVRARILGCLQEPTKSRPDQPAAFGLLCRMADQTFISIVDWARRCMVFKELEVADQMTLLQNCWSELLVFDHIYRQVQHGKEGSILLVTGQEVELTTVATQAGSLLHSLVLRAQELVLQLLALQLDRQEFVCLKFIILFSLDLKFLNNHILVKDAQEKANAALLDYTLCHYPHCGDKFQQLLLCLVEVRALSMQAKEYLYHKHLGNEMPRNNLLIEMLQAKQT
PROTOCOL DESCRIPTION: SF1 (NR5A1) inverse agonists, counter-screen for LRH-1 inverse agonist project, cell-based, luminescence, high throughput (AID 651614);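 also: cells cotransfected with StAR promoter reporter and SF1 expression vector; 0% = vehicle on cells with receptor and 100% = vehicle on cells lacking receptor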
STUDY CONDITIONS: cell-based SF1 luciferase reporter, at 3.6 µM
Activity calls are given as the source filed them. No stated cut-off is given here; in the data, active means inhibition above about 44%; inactive means the rest.
Outcome codes: 1 (active), 0 (inactive)

>>> cat("CCCCC(=O)NC(c1ccc(Cl)cc1Cl)c1ccc2cccnc2c1O (stereo not drawn)")
1
>>> cat("CN(C)CC1CCC/C(=C\\c2ccc(OC(=O)c3ccc(Cl)cc3)cc2)C1=O (stereo not drawn)")
1
>>> cat("COc1cccc(-c2cc(C(=O)Nc3ccncc3)c3ccccc3n2)c1")
0
>>> cat("CCNc1cc(N2CCCC2)ccc1[N+](=O)[O-]")
1
>>> cat("Cc1cc(OCC(=O)Nc2nccs2)c2c(C)cc(=O)oc2c1")
1
>>> cat("Cc1ccc(NC(=O)CSc2nnc(CNC(=O)c3ccco3)n2C)c(C)c1")
1
>>> cat("Cc1nc2ccccc2n1/N=C/c1ccc([N+](=O)[O-])o1")
1
>>> cat("CCOC(=O)c1ccc(N2CCN(C(=O)c3ccccc3)CC2)c(NC(=O)c2ccco2)c1")
0
>>> cat("CCN(CC)c1ccc(/C=C/c2cccc[n+]2C)c(OC)c1")
1
>>> cat("COc1ccc(N2CCN(C(=O)C3CCC(Cn4c(=S)[nH]c5ccccc5c4=O)CC3)CC2)cc1 (stereo not drawn)")
0
>>> cat("O=C(CSc1nccc(=O)[nH]1)Nc1ccc(N2CCOCC2)cc1")
1
>>> cat("Cc1cccc(C)c1NC(=O)C(c1ccc(C(F)(F)F)cc1)n1c(=O)c(-c2cc3ccccc3[nH]2)nc2ccccc21 (stereo not drawn)")
0
>>> cat("Cc1cc(C(=O)CN2C(=O)c3ccccc3S2(=O)=O)c(C)n1CC1CCCO1 (stereo not drawn)")
1

Provenance of the data: PubChem BioAssay
